Values compiled from PubChem BioAssay (NCATS).

experiment: P-glycoprotein substrates identified in KB-8-5-11 adenocarcinoma cell line, qHTS therapeutic library screen (AID 1346987); further: nearly all actives have a fitted effect of over 65% in size
protocol-conditions: KB-8-5-11 (P-gp overexpressing) viability, CellTiter-Glo, 72 h; series mostly up to 44.5 µM
Records with an inconclusive call do not appear. The source made the active and inactive calls. The call rests on the fitted dose curve; in most records, active means well fitted inhibition curve with a large enough effect; inconclusive means small, poorly fitted or top-dose-only effect; inactive means flat fitted curve, though single readings scatter.
Respond using exactly one of the listed classes: 1.0 = active, 0.0 = inactive

| compound | class-assignment |
| --- | --- |
| Cc1onc(-c2c(Cl)cccc2Cl)c1C(=O)N[C@@H]1C(=O)N2[C@@H]1SC(C)(C)[C@@H]2C(=O)O | 0.0 |
| CC(=O)N/N=C/c1ccc([N+](=O)[O-])o1 | 0.0 |
| Cc1ccccc1C(=O)Nc1ccc(C(=O)N2CCCC(N(C)C)c3ccccc32)cc1 (stereo unspecified) | 1.0 |

stdin: In this assay, the call recorded for Cc1ncc(CSSCc2cnc(C)c(O)c2CO)c(CO)c1O was what?
stdout: 0.0

stdin: # iterate: CNCCC=C1c2ccccc2CCc2ccccc21
stdout: 1.0

stdin: Okay, and O=C(CCN1CCC(c2ccccc2)C1)c1ccc2c(c1)OCCO2 (stereo unspecified) ?
stdout: 0.0
